- protocol: Antagonist activity at muscarinic M3 receptor in guinea pig trachea assessed as inhibition of carbachol-induced contraction
- Assay type: tissue-based, Cavia porcellus
quantity kind: pIC50
Lab note: jot the number down without any unit.

Past entries and their recorded results:
COc1ccc([C@H](Cc2c(Cl)c[n+]([O-])cc2Cl)OC(=O)c2ccc(CNC(C(=O)O[C@H]3CN4CCC3CC4)c3ccccc3)s2)cc1OC (stereo in doubt; 92a) :: 9
COc1ccc([C@H](Cc2c(Cl)c[n+]([O-])cc2Cl)OC(=O)c2cccc(NC(C(=O)O[C@H]3CN4CCC3CC4)c3ccccc3)c2)cc1OC (some centres undefined) :: 7.7
O=C(O[C@@H](Cc1c(Cl)c[n+]([O-])cc1Cl)c1ccc(OC(F)F)c(OCC2CC2)c1)c1cccc(S(=O)(=O)NC(C(=O)O[C@H]2CN3CCC2CC3)c2ccccc2)c1 (some centres undefined) :: 7.3

Note down pIC50 recorded for COc1ccc([C@H](Cc2c(Cl)c[n+]([O-])cc2Cl)OC(=O)c2cccc(S(=O)(=O)NC(C(=O)O[C@H]3CN4CCC3CC4)c3ccccc3)c2)cc1OC (some centres undefined)
8.2

---

- assay target: Muscarinic acetylcholine receptor M3 (Homo sapiens, UniProt P20309)
- Sequence (P20309 whole entry): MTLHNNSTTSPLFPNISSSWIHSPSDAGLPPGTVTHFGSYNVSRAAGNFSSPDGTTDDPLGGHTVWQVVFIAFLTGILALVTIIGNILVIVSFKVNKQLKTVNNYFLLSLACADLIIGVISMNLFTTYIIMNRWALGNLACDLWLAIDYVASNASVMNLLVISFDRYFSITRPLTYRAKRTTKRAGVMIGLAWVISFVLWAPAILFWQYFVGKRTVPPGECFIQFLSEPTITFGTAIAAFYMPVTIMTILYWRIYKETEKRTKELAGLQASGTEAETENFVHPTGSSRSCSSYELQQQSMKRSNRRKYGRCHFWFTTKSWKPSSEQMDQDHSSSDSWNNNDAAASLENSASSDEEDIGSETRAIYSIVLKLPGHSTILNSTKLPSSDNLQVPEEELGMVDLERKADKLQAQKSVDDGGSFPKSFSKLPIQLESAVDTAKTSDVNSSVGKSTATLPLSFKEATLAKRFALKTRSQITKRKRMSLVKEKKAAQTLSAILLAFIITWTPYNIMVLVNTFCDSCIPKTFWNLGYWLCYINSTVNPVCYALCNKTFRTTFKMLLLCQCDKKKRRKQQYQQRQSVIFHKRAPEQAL
Response field label takes 1 (yes) when Ki is strictly below 0.2 nM and 0 (no) in all other cases.

Look over these answered cases.
COc1ccc([C@H](Cc2c(Cl)c[n+]([O-])cc2Cl)OC(=O)c2cccc(NC(C(=O)O[C@H]3CN4CCC3CC4)c3ccccc3)c2)cc1OC (some centres not stated) :: 0 (no)
COc1ccc([C@H](Cc2c(Cl)c[n+]([O-])cc2Cl)OC(=O)c2cccc(CNC(C(=O)O[C@H]3CN4CCC3CC4)c3ccccc3)c2)cc1OC (stereo in doubt; 86a) :: 0 (no)
COc1cc([C@H](Cc2c(Cl)c[n+]([O-])cc2Cl)OC(=O)c2ccc(CN(C(=O)O[C@H]3CN4CCC3CC4)c3ccccc3F)s2)ccc1OC(F)F :: 0 (no)

Here's an entry: CC(C)Oc1cc([C@H](Cc2c(Cl)c[n+]([O-])cc2Cl)OC(=O)c2ccc(CN(C(=O)O[C@H]3CN4CCC3CC4)c3ccccc3F)s2)ccc1OC(F)F . Is its Ki below 0.2 nM?
0 (no)

Is the reported Ki for COc1ccc([C@H](Cc2c(Cl)c[n+]([O-])cc2Cl)OC(=O)c2ccc(CNC(C(=O)O[C@H]3CN4CCC3CC4)c3ccccc3F)s2)cc1OC (stereo in doubt; 91b) strictly below 0.2 nM?
1 (yes)

Below 0.2 nM on Ki? Entry O=C(O[C@@H](Cc1c(Cl)c[n+]([O-])cc1Cl)c1ccc(OC(F)F)c(OCC2CC2)c1)c1cccc(NC(C(=O)O[C@H]2CN3CCC2CC3)c2ccccc2)c1 (some centres not stated)
0 (no)

Input COc1ccc([C@H](Cc2c(Cl)c[n+]([O-])cc2Cl)OC(=O)c2ccc(CN(C(=O)O[C@H]3CN4CCC3CC4)c3ccccn3)s2)cc1OC ; condition: Ki strictly below 0.2 nM. Does it hold?
0 (no)

Could you please tell me whether Ki recorded for COc1ccc([C@H](Cc2c(Cl)c[n+]([O-])cc2Cl)OC(=O)c2ccc(CNC(C(=O)O[C@H]3CN4CCC3CC4)c3ccccc3)s2)cc1OC (stereo in doubt; 91a) is less than 0.2 nM?
1 (yes)

Dear colleague, could you confirm whether Ki of COc1ccc([C@H](Cc2c(Cl)c[n+]([O-])cc2Cl)OC(=O)c2cccc(CNC(C(=O)O[C@H]3CN4CCC3CC4)c3ccccc3)c2)cc1OC (stereo in doubt; 89) falls below 0.2 nM? Thanks.
1 (yes)

---

- assay target: 3',5'-cyclic-AMP phosphodiesterase 4B (Homo sapiens)
- Sequence (Q07343 whole entry): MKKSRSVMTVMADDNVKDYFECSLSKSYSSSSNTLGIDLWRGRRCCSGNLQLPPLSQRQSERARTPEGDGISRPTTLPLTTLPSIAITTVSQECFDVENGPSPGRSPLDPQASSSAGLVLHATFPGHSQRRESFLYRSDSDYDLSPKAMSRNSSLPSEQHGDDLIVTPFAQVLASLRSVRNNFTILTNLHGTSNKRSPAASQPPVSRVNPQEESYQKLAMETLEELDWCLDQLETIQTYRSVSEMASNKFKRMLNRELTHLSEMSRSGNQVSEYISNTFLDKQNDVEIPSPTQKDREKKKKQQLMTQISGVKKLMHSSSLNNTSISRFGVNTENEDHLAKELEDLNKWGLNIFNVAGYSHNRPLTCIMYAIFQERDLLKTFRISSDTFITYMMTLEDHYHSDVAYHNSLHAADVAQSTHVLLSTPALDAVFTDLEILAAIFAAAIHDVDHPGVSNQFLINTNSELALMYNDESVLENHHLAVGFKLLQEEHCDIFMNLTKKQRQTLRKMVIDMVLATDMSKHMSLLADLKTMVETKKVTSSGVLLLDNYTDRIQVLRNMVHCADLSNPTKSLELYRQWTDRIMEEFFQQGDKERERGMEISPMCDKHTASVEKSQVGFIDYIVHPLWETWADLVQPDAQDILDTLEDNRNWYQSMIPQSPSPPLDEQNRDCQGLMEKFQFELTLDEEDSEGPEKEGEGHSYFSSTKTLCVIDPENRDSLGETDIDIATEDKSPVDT
- protocol: Inhibition of human recombinant PDE4B2 assessed as […] in cAMP level incubated for 2 hrs by LANCE Ultra cAMP TR-FRET assay
pIC50: −log10 of the molar value.
Kindly return 1.0 if reported pIC50 is no lower than 9; return 0.0 if it is lower.

COc1ccc([C@H](Cc2c(Cl)c[n+]([O-])cc2Cl)OC(=O)c2cccc(CNC(C(=O)O[C@H]3CN4CCC3CC4)c3ccccc3)c2)cc1OC (stereo in doubt; 90) :: 0.0
COc1ccc([C@H](Cc2c(Cl)c[n+]([O-])cc2Cl)OC(=O)Cc2ccc(CN(C(=O)O[C@H]3CN4CCC3CC4)c3ccccc3)cc2)cc1OC :: 0.0
COc1ccc([C@H](Cc2c(Cl)c[n+]([O-])cc2Cl)OC(=O)c2ccc(CN(C(=O)O[C@H]3CN4CCC3CC4)c3ccccc3)cc2F)cc1OC :: 0.0

Kindly determine if pIC50 recorded for COc1ccc([C@H](Cc2c(Cl)c[n+]([O-])cc2Cl)OC(=O)c2ccc(F)c(CN(C(=O)O[C@H]3CN4CCC3CC4)c3ccccc3)c2)cc1OC is above or exactly 9.
0.0

Threshold query (pIC50 >= 9) on COc1ccc([C@H](Cc2c(Cl)c[n+]([O-])cc2Cl)OC(=O)c2ccc(CNC(C(=O)O[C@@H]3CCN(C)C3)c3ccccc3)s2)cc1OC (stereo in doubt; 91f)
0.0

For this compound, is measured pIC50 9 or higher? COc1ccc([C@H](Cc2c(Cl)c[n+]([O-])cc2Cl)OC(=O)c2ccc(CNC(C(=O)OC3CCN(C)CC3)c3ccccc3)s2)cc1OC (stereo in doubt; 92e)
1.0

Can COc1ccc([C@H](Cc2c(Cl)c[n+]([O-])cc2Cl)OC(=O)c2ccc(CN(C(=O)O[C@H]3CN4CCC3CC4)c3ccccc3)cc2)cc1OC be said to have pIC50 at or above 9?
0.0

Is pIC50 at least 9? Consider COc1ccc([C@H](Cc2c(Cl)c[n+]([O-])cc2Cl)OC(=O)c2cccc(CNC(C(=O)O[C@H]3CN4CCC3CC4)c3ccccc3)c2)cc1OC (stereo in doubt; 89)
0.0

---

- protocol: Kinetic solubility of compound in PBS at pH 7.4 […] incubated for 2 hrs by LC-UV and LC-MS analysis
- Type: physicochemical
- reported conditions: read-out: Kinetic_solubility
Below is a list of entries, each paired with its recorded solubility kinetic at 2 h value.
Report only the number, with the unit µM understood.

COc1ccc([C@H](Cc2c(Cl)c[n+]([O-])cc2Cl)OC(=O)c2ccc(CN(C(=O)O[C@H]3CN4CCC3CC4)c3ccccc3F)s2)cc1OC :: 134

# evaluate next
State, in one line, measured solubility kinetic at 2 h of COc1ccc([C@H](Cc2c(Cl)c[n+]([O-])cc2Cl)OC(=O)c2ccc(CNC(C(=O)O[C@H]3CN4CCC3CC4)c3ccccc3)s2)cc1OC (stereo in doubt; 92a)
145

---

- protocol: Microsomal stability in human liver microsomes assessed as intrinsic clearance at 1 uM measured up to 60 mins by HPLC-MS/MS analysis
- Assay type: ADME, Microsome
- reported conditions: read-out: CLH
quantity kind: microsomal CLint at 1 µM (µL/min/mg)
Just the number in µL/min/mg, nothing appended.

Write down microsomal CLint at 1 µM measured for item COc1ccc([C@H](Cc2c(Cl)c[n+]([O-])cc2Cl)OC(=O)c2ccc(CNC(C(=O)O[C@H]3CN4CCC3CC4)c3ccccc3)s2)cc1OC (stereo in doubt; 92a)
213

---

pIC50 by entry:
- assay target: Muscarinic acetylcholine receptor M3 (Rattus norvegicus)
- Sequence (P08483 whole entry): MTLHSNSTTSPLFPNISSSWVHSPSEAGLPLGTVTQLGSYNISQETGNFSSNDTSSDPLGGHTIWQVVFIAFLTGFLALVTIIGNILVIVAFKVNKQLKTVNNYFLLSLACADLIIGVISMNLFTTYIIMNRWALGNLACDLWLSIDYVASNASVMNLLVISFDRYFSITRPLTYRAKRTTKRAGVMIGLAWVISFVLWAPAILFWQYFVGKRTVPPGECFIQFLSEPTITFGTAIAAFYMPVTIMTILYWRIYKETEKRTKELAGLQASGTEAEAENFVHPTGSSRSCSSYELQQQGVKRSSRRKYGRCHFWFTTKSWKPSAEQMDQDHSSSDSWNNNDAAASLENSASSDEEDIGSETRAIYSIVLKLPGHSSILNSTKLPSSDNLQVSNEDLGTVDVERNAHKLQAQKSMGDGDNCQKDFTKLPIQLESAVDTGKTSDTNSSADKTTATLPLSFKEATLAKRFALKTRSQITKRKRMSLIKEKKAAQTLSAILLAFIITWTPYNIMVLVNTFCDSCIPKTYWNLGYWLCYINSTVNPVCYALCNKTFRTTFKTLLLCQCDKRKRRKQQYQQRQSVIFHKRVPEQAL
- protocol: Antagonist activity at muscarinic M3 receptor in rat trachea assessed as inhibition of carbachol-induced contraction
In plain terms, pIC50 is the concentration in mol/L turned into minus its base-10 logarithm.

Worked examples, 2 compounds total:
COc1ccc([C@H](Cc2c(Cl)c[n+]([O-])cc2Cl)OC(=O)c2ccc(CNC(C(=O)OCCN(C)C)c3ccccc3)s2)cc1OC (stereo in doubt; 91j) :: 7.10
COc1ccc([C@H](Cc2c(Cl)c[n+]([O-])cc2Cl)OC(=O)c2ccc(CNC(C(=O)O[C@H]3CN4CCC3CC4)c3ccccc3)s2)cc1OC (stereo in doubt; 92a) :: 9.00

Please examine the following record next.
Return reported pIC50. Input compound: COc1ccc([C@H](Cc2c(Cl)c[n+]([O-])cc2Cl)OC(=O)c2ccc(CNC(C(=O)OC[C@H]3CN4CCC3CC4)c3ccccc3)s2)cc1OC (stereo in doubt; 92g)
8.50

---

- assay target: Muscarinic acetylcholine receptor M3 (Homo sapiens, UniProt P20309)
Consider the following molecules and their measured Ki readings.
Give your result in nM as a bare value.

Recall the reported Ki of COc1ccc([C@H](Cc2c(Cl)c[n+]([O-])cc2Cl)OC(=O)c2ccc(CNC(C(=O)O[C@H]3CN4CCC3CC4)c3ccccc3)s2)cc1OC (stereo in doubt; 92a) when tested on Muscarinic acetylcholine receptor M3 (Homo sapiens, UniProt P20309).
0.0631

Look up Muscarinic acetylcholine receptor M3 (Homo sapiens, UniProt P20309) data: Ki of COc1ccc([C@H](Cc2c(Cl)c[n+]([O-])cc2Cl)OC(=O)c2ccc(CNC(C(=O)OCCN(C)C)c3ccccc3)s2)cc1OC (stereo in doubt; 91j) , then report it.
12.6

State, for Muscarinic acetylcholine receptor M3 (Homo sapiens, UniProt P20309), measured Ki of the molecule listed here: COc1ccc([C@H](Cc2c(Cl)c[n+]([O-])cc2Cl)OC(=O)c2ccc(CNC(C(=O)OC3C[C@H]4CC[C@H](C3)N4C)c3ccccc3)s2)cc1OC (stereo in doubt; 91d)
0.501

Report its Ki with Muscarinic acetylcholine receptor M3 (Homo sapiens, UniProt P20309) as the test system: O=C(O[C@@H](Cc1c(Cl)c[n+]([O-])cc1Cl)c1ccc(OC(F)F)c(OCC2CC2)c1)c1cccc(CN(C(=O)O[C@H]2CN3CCC2CC3)c2ccccc2)c1
1.26
